meta.source: ChEMBL document CHEMBL4627281

# ASSAY NAME: Cmax in C57BL/6 mouse at 20 mg/kg, po administered as single dose measured upto 24 hrs by LC-MS/MS analysis
# Type: ADME, organism-based
# Parameters: dose 20 mg/kg, route oral
# MEASUREMENT SETUP: in vivo
QUANTITY KIND: Cmax

Memo: Cc1cn(-c2cc(CN3CCC[C@H](N)C3)cc(NC(=O)c3ccc(C)c(Oc4ccccc4)c3)c2)cn1 , reported Cmax: 52.6 ng/mL

* * *

# STUDY SYSTEM: Platelet-derived growth factor receptor beta (Homo sapiens, UniProt P09619)
# Sequence (P09619 whole entry, the tested form may be a part): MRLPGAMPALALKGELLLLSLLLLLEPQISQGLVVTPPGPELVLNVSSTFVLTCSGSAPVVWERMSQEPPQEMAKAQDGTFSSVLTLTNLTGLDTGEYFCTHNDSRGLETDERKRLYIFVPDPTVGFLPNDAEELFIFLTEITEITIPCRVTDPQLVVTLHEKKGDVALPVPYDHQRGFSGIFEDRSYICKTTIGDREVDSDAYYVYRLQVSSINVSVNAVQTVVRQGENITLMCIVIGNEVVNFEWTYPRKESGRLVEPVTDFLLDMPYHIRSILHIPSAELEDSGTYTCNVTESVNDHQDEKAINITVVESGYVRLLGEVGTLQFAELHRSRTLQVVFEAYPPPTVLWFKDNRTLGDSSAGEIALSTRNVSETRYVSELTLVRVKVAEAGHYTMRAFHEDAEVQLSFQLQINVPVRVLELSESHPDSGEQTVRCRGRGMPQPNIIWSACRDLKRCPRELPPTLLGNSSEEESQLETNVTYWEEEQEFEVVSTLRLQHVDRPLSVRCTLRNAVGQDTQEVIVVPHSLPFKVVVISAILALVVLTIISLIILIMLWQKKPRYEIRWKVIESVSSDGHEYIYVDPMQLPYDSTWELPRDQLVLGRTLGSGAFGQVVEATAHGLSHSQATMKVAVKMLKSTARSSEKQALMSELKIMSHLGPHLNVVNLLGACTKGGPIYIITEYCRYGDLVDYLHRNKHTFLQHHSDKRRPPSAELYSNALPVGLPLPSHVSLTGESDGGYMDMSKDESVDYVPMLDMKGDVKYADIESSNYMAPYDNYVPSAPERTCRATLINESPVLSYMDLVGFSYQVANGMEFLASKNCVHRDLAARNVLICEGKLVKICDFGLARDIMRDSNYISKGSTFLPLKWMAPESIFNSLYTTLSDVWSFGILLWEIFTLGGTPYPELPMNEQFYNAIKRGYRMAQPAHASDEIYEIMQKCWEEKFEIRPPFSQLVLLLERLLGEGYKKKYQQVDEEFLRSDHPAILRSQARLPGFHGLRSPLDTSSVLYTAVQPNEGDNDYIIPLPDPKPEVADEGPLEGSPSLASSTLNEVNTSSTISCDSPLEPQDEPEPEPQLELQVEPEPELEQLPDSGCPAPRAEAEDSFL
# ASSAY NAME: Inhibition of recombinant human N-terminal GST-tagged PDGFRbeta cytoplasmic domain (557 to 1106 residues) expressed in baculovirus expression system using FAM-labelled P22 peptide as substrate preincubated for 10 mins followed by substrate addition and measured after 1 hr in presence of ATP by fluorescence assay
pIC50: −log10 of the molar value.
Listed here: items and their measured pIC50.

Would you please look over these solved cases?
> print(dat)
                                  structure                              study.system  quantity.kind  endpoint.result
1  Cc1cn(-c2cc(CCC(=O)O)cc(NC(=O)c3ccc(C)c(Nc4nccc(-c5ccccc5)n4)c3)c2)cn1  Platelet-derived growth factor receptor beta (Homo sapiens, UniProt P09619)          pIC50           < 5.00
2  Cc1cn(-c2cc(NC(=O)c3ccc(C)c(C(=O)c4cccc(C#N)c4)c3)cc(N3CCN(C)CC3)c2)cn1  Platelet-derived growth factor receptor beta (Homo sapiens, UniProt P09619)          pIC50           < 5.00
3  Cc1ccc(C(=O)Nc2cc(N3CCN(C)CC3)cc(-n3cnc(C)c3)c2)cc1  Platelet-derived growth factor receptor beta (Homo sapiens, UniProt P09619)          pIC50           < 5.00

Now, please, on to the next molecule.
Memo: Cc1cn(-c2cc(CN3CCN(C)CC3)cc(NC(=O)c3ccc(C)c(Nc4nccc(-c5ccccc5)n4)c3)c2)cn1 , reported pIC50: 5.27

* * *

Listed here: items and their measured AUC(0-inf).
# ASSAY NAME: AUCinfinity in CD1 mouse at 0.4 mg/kg, iv administered as cassette dose measured upto 24 hrs by LC-MS/MS analysis
# Assay type: ADME, organism-based
# Parameters: dose 0.4 mg/kg, route intravenous, time infinity
# MEASUREMENT SETUP: in vivo
# number only, unit ng·h/mL dropped from output

Would you please look over these solved cases?
> print(dat)
                                  structure  unit.string  endpoint.result
1  Cc1cn(-c2cc(CCS(N)(=O)=O)cc(NC(=O)c3ccc(C)c(Nc4nccc(-c5ccccc5)n4)c3)c2)cn1      ng·h/mL             63.7
2  Cc1cn(-c2cc(NC(=O)c3ccc(C)c(C(=O)c4cccc(C#N)c4)c3)cc(N3CCN(C)CC3)c2)cn1      ng·h/mL               83
3  Cc1cn(-c2cc(CN3CCN(C)CC3)cc(NC(=O)c3ccc(C)c(Nc4nccc(-c5ccccc5)n4)c3)c2)cn1      ng·h/mL              187

Memo: Cc1cn(-c2cc(CN3CCC[C@H](N)C3)cc(NC(=O)c3ccc(C)c(Oc4ccccc4)c3)c2)cn1 , reported AUC(0-inf): 1470

* * *

# ASSAY NAME: Tmax in C57BL/6 mouse at 20 mg/kg, po administered as single dose measured upto 24 hrs by LC-MS/MS analysis
# Format: ADME, organism-based
# MEASUREMENT SETUP: in vivo
QUANTITY KIND: Tmax

Memo: Cc1cn(-c2cc(CN3CCC[C@H](N)C3)cc(NC(=O)c3ccc(C)c(Oc4ccccc4)c3)c2)cn1 , reported Tmax: 2 h

* * *

# ASSAY NAME: AUCinfinity in C57BL/6 mouse at 5 mg/kg, iv administered as single dose measured upto 24 hrs by LC-MS/MS analysis
# Assay type: ADME, organism-based
# Design: dose 5 mg/kg, route intravenous, time infinity
# MEASUREMENT SETUP: in vivo
QUANTITY KIND: AUC(0-inf) (ng·h/mL)
# number only, unit ng·h/mL dropped from output

Memo: Cc1cn(-c2cc(CN3CCC[C@H](N)C3)cc(NC(=O)c3ccc(C)c(Oc4ccccc4)c3)c2)cn1 , reported AUC(0-inf): 4600

* * *

# STUDY SYSTEM: Mast/stem cell growth factor receptor Kit (Homo sapiens)
# Sequence (P10721 whole entry): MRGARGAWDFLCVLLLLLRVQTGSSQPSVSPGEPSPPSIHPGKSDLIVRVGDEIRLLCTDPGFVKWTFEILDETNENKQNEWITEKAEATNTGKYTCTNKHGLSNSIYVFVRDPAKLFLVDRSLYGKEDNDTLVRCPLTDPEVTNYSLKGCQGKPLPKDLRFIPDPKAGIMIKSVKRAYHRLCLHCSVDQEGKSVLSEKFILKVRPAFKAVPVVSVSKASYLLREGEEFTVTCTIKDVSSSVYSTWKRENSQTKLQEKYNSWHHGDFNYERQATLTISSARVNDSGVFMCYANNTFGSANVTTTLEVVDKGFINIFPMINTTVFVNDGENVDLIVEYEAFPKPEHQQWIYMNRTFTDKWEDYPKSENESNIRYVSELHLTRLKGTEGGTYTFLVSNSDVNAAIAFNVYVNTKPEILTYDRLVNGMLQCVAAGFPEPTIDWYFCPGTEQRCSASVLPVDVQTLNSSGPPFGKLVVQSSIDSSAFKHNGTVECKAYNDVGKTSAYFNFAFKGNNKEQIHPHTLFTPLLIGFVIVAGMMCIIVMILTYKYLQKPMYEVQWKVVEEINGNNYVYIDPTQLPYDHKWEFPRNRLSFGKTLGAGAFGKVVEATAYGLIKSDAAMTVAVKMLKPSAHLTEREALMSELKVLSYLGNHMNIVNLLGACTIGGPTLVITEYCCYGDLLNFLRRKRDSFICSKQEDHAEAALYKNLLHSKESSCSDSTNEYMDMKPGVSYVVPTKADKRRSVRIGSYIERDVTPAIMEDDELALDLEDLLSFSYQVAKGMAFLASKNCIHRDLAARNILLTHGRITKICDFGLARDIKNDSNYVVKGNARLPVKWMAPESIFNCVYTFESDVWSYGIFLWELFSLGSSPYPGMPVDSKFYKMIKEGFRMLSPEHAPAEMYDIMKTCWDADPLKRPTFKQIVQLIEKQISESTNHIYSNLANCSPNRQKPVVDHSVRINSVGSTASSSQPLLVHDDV
# ASSAY NAME: Inhibition of recombinant human N-terminal GST-tagged c-Kit (544 to end residues) expressed in baculovirus infected Sf21 insect cells using FAM-labelled P22 peptide as substrate preincubated for 10 mins followed by substrate addition and measured after 1 hr in presence of ATP by fluorescence assay
pIC50: −log10 of the molar value.
Tag: label 1 if measured pIC50 is not below 6, label 0 if it is.

> print(dat)
                                  structure  class.name
1  Cc1cn(-c2cc(CCS(N)(=O)=O)cc(NC(=O)c3ccc(C)c(Nc4nccc(-c5ccccc5)n4)c3)c2)cn1     label 0

Let's switch to this molecule now.
hey, is pIC50 for this one >= 6? Cc1cn(-c2cc(NC(=O)c3ccc(C)c(C(=O)c4cccc(C#N)c4)c3)cc(N3CCN(C)CC3)c2)cn1 label 0

* * *

Listed here: items and their measured IC50.
# STUDY SYSTEM: PCSK9/LDLR (Homo sapiens, UniProt Q8NBP7)
# Sequence (Q8NBP7 31-152 limits assumed): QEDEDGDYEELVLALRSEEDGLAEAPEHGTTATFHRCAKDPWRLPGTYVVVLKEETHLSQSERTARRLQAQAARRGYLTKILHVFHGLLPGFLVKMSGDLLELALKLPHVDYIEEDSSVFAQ
# Sequence (Q8NBP7 153-692 limits assumed): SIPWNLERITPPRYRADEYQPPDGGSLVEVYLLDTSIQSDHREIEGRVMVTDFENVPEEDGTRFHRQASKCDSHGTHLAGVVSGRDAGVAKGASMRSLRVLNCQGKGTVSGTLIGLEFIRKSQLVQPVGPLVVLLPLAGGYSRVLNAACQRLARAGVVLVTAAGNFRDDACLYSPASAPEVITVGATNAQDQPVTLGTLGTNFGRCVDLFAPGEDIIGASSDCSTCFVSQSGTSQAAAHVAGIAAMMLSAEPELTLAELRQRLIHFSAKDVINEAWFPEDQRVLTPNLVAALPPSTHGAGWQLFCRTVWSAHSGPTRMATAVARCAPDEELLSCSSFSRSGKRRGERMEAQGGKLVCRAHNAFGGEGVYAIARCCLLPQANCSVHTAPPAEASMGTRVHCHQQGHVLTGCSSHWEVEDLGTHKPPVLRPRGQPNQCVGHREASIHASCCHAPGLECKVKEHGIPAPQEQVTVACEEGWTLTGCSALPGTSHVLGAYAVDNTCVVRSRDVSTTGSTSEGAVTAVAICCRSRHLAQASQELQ
# Sequence (P01130 22-860 partner limits assumed): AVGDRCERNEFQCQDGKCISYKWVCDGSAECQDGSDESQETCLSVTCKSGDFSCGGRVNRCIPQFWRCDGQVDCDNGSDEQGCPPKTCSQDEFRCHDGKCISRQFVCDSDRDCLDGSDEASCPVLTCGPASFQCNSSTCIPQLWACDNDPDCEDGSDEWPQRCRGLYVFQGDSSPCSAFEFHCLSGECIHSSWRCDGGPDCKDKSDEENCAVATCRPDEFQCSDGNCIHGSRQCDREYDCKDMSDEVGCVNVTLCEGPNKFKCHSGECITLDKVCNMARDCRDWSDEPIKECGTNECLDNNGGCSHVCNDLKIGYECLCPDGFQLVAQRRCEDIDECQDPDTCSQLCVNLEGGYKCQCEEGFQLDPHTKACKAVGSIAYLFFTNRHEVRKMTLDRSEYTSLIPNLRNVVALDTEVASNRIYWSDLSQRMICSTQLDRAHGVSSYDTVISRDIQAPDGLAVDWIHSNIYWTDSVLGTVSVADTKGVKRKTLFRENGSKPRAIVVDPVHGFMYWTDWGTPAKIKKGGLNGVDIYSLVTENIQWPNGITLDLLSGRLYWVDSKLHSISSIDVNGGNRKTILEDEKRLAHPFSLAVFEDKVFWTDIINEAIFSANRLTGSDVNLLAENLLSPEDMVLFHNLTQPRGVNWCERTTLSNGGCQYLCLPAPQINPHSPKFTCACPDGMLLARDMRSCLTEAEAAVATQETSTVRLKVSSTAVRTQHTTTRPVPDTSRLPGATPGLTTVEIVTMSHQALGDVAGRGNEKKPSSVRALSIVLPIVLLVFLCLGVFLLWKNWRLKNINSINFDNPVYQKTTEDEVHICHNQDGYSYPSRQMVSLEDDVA
# ASSAY NAME: Inhibition of recombinant human His-tagged PCSK9 interaction with recombinant LDLR AB domain (unknown origin) measured after 3 hrs by horseradish peroxidase-coupled TMB substrate based spectrophotometry
# number only, unit µM dropped from output

Would you please look over these solved cases?
> print(dat)
                                  structure  unit.string  endpoint.result
1  Cc1cn(-c2cc(CN3CCN(C)CC3)cc(NC(=O)c3ccc(C)c(Nc4nccc(-c5ccccc5)n4)c3)c2)cn1           µM            0.714
2  Cc1cn(-c2cc(NC(=O)c3ccc(C)c(Oc4cccc5ccncc45)c3)cc(N3CCN(C)CC3)c2)cn1           µM            0.078
3  Cc1cn(-c2cc(/C=C/C(=O)O)cc(NC(=O)c3ccc(C)c(Nc4nccc(-c5ccccc5)n4)c3)c2)cn1           µM             11.3
4  Cc1cn(-c2cc(NC(=O)c3ccc(C)c(Oc4ccccc4)c3)cc(C(F)(F)F)c2)cn1           µM             13.4
5  CCCCc1cc(NC(=O)c2ccc(C)c(Nc3nccc(-c4ccccc4)n3)c2)cc(-n2cnc(C)c2)c1           µM             7.41
6  Cc1cn(-c2cc(CN3CCC[C@H](N)C3)cc(NC(=O)c3ccc(C)c(Nc4nccc(-c5ccc(F)cc5)n4)c3)c2)cn1           µM            0.428
7  Cc1cc(-c2cc(NC(=O)c3ccc(C)c(Nc4nccc(-c5ccc(F)cc5)n4)c3)cc(N3CCN(C)CC3)c2)on1           µM             10.7

Now, please, on to the next compound.
Memo: Cc1cn(-c2cc(NC(=O)c3ccc(C)c(Nc4nccc(-c5ccccc5)n4)c3)cc(N3CCNCC3)c2)cn1 , reported IC50: 0.491

* * *

Listed here: items and their measured IC50.
# STUDY SYSTEM: Platelet-derived growth factor receptor beta (Homo sapiens, UniProt P09619)
# ASSAY NAME: Inhibition of recombinant human N-terminal GST-tagged PDGFRbeta cytoplasmic domain (557 to 1106 residues) expressed in baculovirus expression system using FAM-labelled P22 peptide as substrate preincubated for 10 mins followed by substrate addition and measured after 1 hr in presence of ATP by fluorescence assay

Would you please look over these solved cases?
> print(dat)
                                  structure  quantity.kind  endpoint.result
1  Cc1cc(-c2cc(NC(=O)c3ccc(C)c(Nc4nccc(-c5ccc(F)cc5)n4)c3)cc(N3CCN(C)CC3)c2)on1           IC50          5.52 µM
2  Cc1cn(-c2cc(NC(=O)c3ccc(C)c(Oc4ccccc4)c3)cc(C(F)(F)F)c2)cn1           IC50          > 10 µM
3  Cc1cn(-c2cc(CCS(N)(=O)=O)cc(NC(=O)c3ccc(C)c(Nc4nccc(-c5ccccc5)n4)c3)c2)cn1           IC50          > 10 µM
4  Cc1cn(-c2cc(CN3CCCC[C@H]3C(=O)O)cc(NC(=O)c3ccc(C)c(Nc4nccc(-c5ccc(F)cc5)n4)c3)c2)cn1           IC50          > 10 µM

Now, please, on to the next compound.
Memo: Cc1ccc(C(=O)Nc2cccc(N3CCN(C)CC3)c2)cc1Nc1nccc(-c2ccc(F)cc2)n1 , reported IC50: > 10 µM
